Give Activity for every item shown.
# Test system: Rattus norvegicus
# Experiment: Toxicity in rat assessed as incidence of hyperaemia at 100 mg/kg, po
# Format: organism-based
# Parameters: dose 100 mg/kg, route oral
# Study Conditions: in vivo
Give bare numbers, in %.

Example cases with answers are listed next.
1. O=C(Oc1ccc(Br)cc1C(=O)c1ccc(Cl)cc1)c1ccc(Cl)cc1: 50
2. CCCCC1C(=O)N(c2ccccc2)N(c2ccccc2)C1=O: 25
3. Cc1ccc(OC(=O)c2ccccc2)c(C(=O)c2ccccc2)c1: 40
4. O=C(Oc1ccc(Cl)cc1C(=O)c1cccc(Cl)c1Cl)c1ccccc1: 70

Report Activity for every entry below.
1. O=C(Oc1ccc(Cl)cc1C(=O)c1ccc(Cl)cc1)c1ccc(Cl)cc1
2. Cc1ccc(OC(=O)c2ccccc2)c(C(=O)c2ccc(Cl)cc2)c1
3. Cc1ccc(C(=O)Oc2ccc(Cl)cc2C(=O)c2ccc(Cl)cc2)cc1
4. Cc1ccc(OC(=O)c2cccc(Cl)c2)c(C(=O)c2cccc(Cl)c2)c1
5. Cc1ccc(C(=O)c2cc(F)ccc2OC(=O)c2ccc(Cl)cc2)cc1
6. Cc1ccc(OC(=O)c2ccccc2C)c(C(=O)c2ccccc2C)c1

1: 60; 2: 20; 3: 50; 4: 25; 5: 50; 6: 50

###

Give Activity for every item shown.
# Test system: Rattus norvegicus
# Experiment: Toxicity in rat assessed as incidence of hyperaemia at 100 mg/kg, po
# Type: organism-based
# Parameters: dose 100 mg/kg, route oral
# Study Conditions: in vivo
Numbers only, in %.

Report Activity for every entry below.
1. Cc1ccc(C(=O)c2cc(C)ccc2OC(=O)c2ccc(Cl)cc2)cc1
2. Cc1ccc(C(=O)Oc2ccc(F)cc2C(=O)c2ccc(C)cc2)cc1
3. Cc1ccc(C(=O)Oc2ccc(C)cc2C(=O)c2ccc(C)cc2)cc1
4. CC(=O)Oc1ccccc1C(=O)O [ASPIRIN]
5. Cc1ccc(C(=O)Oc2ccc(C)cc2C(=O)c2ccccc2)cc1
6. Cc1ccc(OC(=O)c2ccccc2)c(C(=O)c2cccc(F)c2)c1

25
30
40
25
20
25

###

Give Activity for every item shown.
# System: Rattus norvegicus
# Experiment: Toxicity in rat assessed as incidence of ulcer at 100 mg/kg, po
# Assay type: organism-based
# Design: dose 100 mg/kg, route oral
# Study Conditions: in vivo
Numbers only, in %.

1) O=C(Oc1ccc(Cl)cc1C(=O)c1cccc(Cl)c1Cl)c1ccccc1: 10
2) Cc1ccc(C(=O)c2cc(F)ccc2OC(=O)c2ccc(Cl)cc2)cc1: 15
3) Cc1ccc(OC(=O)c2ccccc2)c(C(=O)c2cccc(F)c2)c1: 50
4) Cc1ccc(C(=O)c2cc(C)ccc2OC(=O)c2ccc(Cl)cc2)cc1: 15
5) Cc1ccc(OC(=O)c2ccccc2C)c(C(=O)c2ccccc2C)c1: 20

Then this molecule:
For CC(=O)Oc1ccccc1C(=O)O [ASPIRIN] , what is its reported Activity?
75

###

# Species on record: Oryctolagus cuniculus
# Experiment: Inhibition of rabbit microsomal COX at 10 uM
Value Type: inhibition (%)
One number for each entry, in %.

1) Cc1ccc(OC(=O)c2ccccc2C)c(C(=O)c2ccccc2C)c1: 70
2) CCCCC1C(=O)N(c2ccccc2)N(c2ccccc2)C1=O [PHENYLBUTAZONE]: 85
3) Cc1ccc(OC(=O)c2ccccc2)c(C(=O)c2ccccc2)c1: 20
4) Cc1ccc(C(=O)Oc2ccc(C)cc2C(=O)c2ccc(C)cc2)cc1: 65
5) Cc1ccc(C(=O)Oc2ccc(F)cc2C(=O)c2ccc(C)cc2)cc1: 30
6) O=C(Oc1ccc(Cl)cc1C(=O)c1ccc(Cl)cc1)c1ccc(Cl)cc1: 60

Report inhibition for every entry below.
1. O=C(Oc1ccc(Br)cc1C(=O)c1ccc(Cl)cc1)c1ccc(Cl)cc1
2. CC(=O)Oc1ccccc1C(=O)O [ASPIRIN]
3. O=C(Oc1ccc(Cl)cc1C(=O)c1cccc(Cl)c1Cl)c1ccccc1
4. Cc1ccc(C(=O)c2cc(F)ccc2OC(=O)c2ccc(Cl)cc2)cc1
5. Cc1ccc(C(=O)Oc2ccc(Cl)cc2C(=O)c2ccc(Cl)cc2)cc1

1: 87; 2: 95; 3: 40; 4: 70; 5: 85

Source of measurements: ChEMBL document CHEMBL1147917
